A collection of compounds and their measured melting point

# Compound, melting point
measured = [
    ("CCOC(=O)OC1=C(c2cc(C)ccc2C)C(=O)NC1CC1CC[S+]([O-])CC1 (stereo not shown) [Compound P1.4]", "103 to 106 °C"),
    ("Cc1cc(C)c(C2C(=O)NC(CC3CCN(C)CC3)C2=O)c(C)c1 (stereo not shown) [Compound P2.11]", "133 to 136 °C"),
    ("Cc1ccc(C)c(C2C(=O)NC(CC3CCOCC3)C2=O)c1 (stereo not shown) [Compound P2.4]", "114 to 116 °C"),
    ("Cc1ccc(C)c(C2=C(O)C(CC3CCS(=O)(=O)CC3)NC2=O)c1 (stereo not shown) [Compound P2.6]", "244 to 246 °C"),
    ("Cc1ccc(C)c(C2C(=O)NC(CC3CCN(C)CC3)C2=O)c1 (stereo not shown) [Compound P2.10]", "142 to 145 °C"),
    ("CCOC(=O)OC1=C(c2cc(C)ccc2C)C(=O)NC1CC1CCS(=O)(=NC(=O)C(F)(F)F)CC1 (single isomer, unassigned) [Compound P1.7]", "87 to 89 °C"),
    ("CCOC(=O)OC1=C(c2cc(C)ccc2C)C(=O)NC1CC1CCS(=O)(=O)CC1 (stereo not shown) [Compound P1.3]", "97 to 101 °C"),
    ("CCOC(=O)OC1=C(c2cc(C)ccc2C)C(=O)NC1CC1CCS(=NC#N)CC1 (stereo not shown) [Compound P1.9]", "103 to 105 °C"),
    ("CON1CCC(C2NC(=O)C(c3c(C)cc(C)cc3C)=C2O)CC1 (stereo not shown) [Compound P2.12]", "206 to 209 °C"),
    ("CCOC(=O)OC1=C(c2cc(C)ccc2C)C(=O)NC1CC1CCSCC1 (stereo not shown) [Compound P1.2]", "75 to 76 °C"),
    ("CCOC(=O)OC1=C(c2cc(C)ccc2C)C(=O)NC1CC1CCS(=O)(=NC(=O)C(F)(F)F)CC1 (single isomer, unassigned) [Compound P1.6]", "91 to 93 °C"),
    ("CCOC(=O)OC1=C(c2cc(C)ccc2C)C(=O)NC1CC1CCS(=NC(=O)C(F)(F)F)CC1 (stereo not shown) [Compound P1.8]", "190 to 192 °C"),
    ("Cc1ccc(C)c(C2C(=O)NC(CC3CCS(=O)(=NC#N)CC3)C2=O)c1 (stereo not shown) [Compound P2.9]", "189 to 191 °C"),
]
